- Assayed target: HLA-A*26:01
- Protocol description: IEDB peptide-MHC binding, purified MHC/direct/fluorescence; filed as Kd, often an IC50 or EC50 that approximates it; bounds were set here for any values at or beyond the usual limits of such assays
- Conditions: source organism: Mycobacterium tuberculosis str. Haarlem
Metric name: pKd
# pKd: negative log10 of molar concentration; output just the value

Lookup result for `IPAPGLGAL` ; measured pKd: 4.96

* * *

- Assayed target: HLA-B*15:01
- Protocol description: IEDB peptide-MHC binding, purified MHC/direct/fluorescence; filed as Kd, often an IC50 or EC50 that approximates it; bounds were set here for any values at or beyond the usual limits of such assays
- Conditions: source organism: Orthohantavirus andesense
pKd: −log10 of the molar value.
Metric name: pKd

Lab book: pKd of `EKLKKKSAF` noted as ≤ 4.70
